- Test system: Alopecurus myosuroides (ALOMY)
- assay-explanation: Example A post-emergence herbicidal activity, glasshouse pot test
- Format: in vivo
- protocol-conditions: Rate 15 g/ha, evaluated 15 days later, 100=total damage to plant, 0=no damage to plant
- Description: Seeds of a variety of test species were sown in standard soil in pots. […] The test plants were then grown in a greenhouse under optimum conditions until, 15 days later for post-emergence and 20 days for pre-emergence, the test was evaluated (100=total damage to plant; 0=no damage to plant). […]
readout-type: Post-Emergence Activity ALOMY (damage to plant)
Give bare numbers.

Would you please look over these solved cases?
# compound, target, recorded-number
data = [
    ("CCc1ccc(-c2ccc(Cl)cc2)cc1C1=C(O)CCCC1=O", "Alopecurus myosuroides (ALOMY)", 0),
    ("CCc1ccc(-c2ccc(Cl)cc2)cc1C1=C(O)CC(C)(C)CC1=O", "Alopecurus myosuroides (ALOMY)", 50),
    ("Cc1ccc(-c2ccc(Cl)cc2)cc1C1=C(O)C(C)(C)CCC1=O [Example 1-8-a-1 from WO99/48869, reference compound]", "Alopecurus myosuroides (ALOMY)", 0),
]

With those in mind, consider the next compound.
*Q* Can you share its Post-Emergence Activity ALOMY (damage to plant)? I mean this compound: CCc1ccc(-c2ccc(Cl)cc2)cc1C1=C(O)C(C)(C)CCC1=O
*A* 0

###

Provide the recorded Pre-Emergence Activity ECHCG (damage to plant) for the entries that follow.
- Tested on: Echinochloa crus-galli (ECHCG)
- assay-explanation: Example A pre-emergence herbicidal activity, glasshouse pot test
- Format: in vivo
- protocol-conditions: Rate 250 g/ha, evaluated 20 days later, 100=total damage to plant, 0=no damage to plant
Answers are plain numbers.

Would you please look over these solved cases?
# compound, target, recorded-number
measured = [
    ("CCc1ccc(-c2ccc(Cl)cc2)cc1C1=C(O)CCCC1=O", "Echinochloa crus-galli (ECHCG)", 100),
    ("Cc1ccc(-c2ccc(Cl)cc2)cc1C1=C(O)C(C)(C)CCC1=O [Example 1-8-a-1 from WO99/48869, reference compound]", "Echinochloa crus-galli (ECHCG)", 90),
    ("CCc1ccc(-c2ccc(Cl)cc2)cc1C1=C(O)CC(C)(C)CC1=O", "Echinochloa crus-galli (ECHCG)", 100),
]

With those in mind, consider the next compound.
*Q* Can you share its Pre-Emergence Activity ECHCG (damage to plant)? I mean this compound: CCc1ccc(-c2ccc(Cl)cc2)cc1C1=C(O)C(C)(C)CCC1=O
*A* 90

###

Provide the recorded pest or weed control at 250 g/ha for the entries that follow.
- Tested on: Avena fatua (AVEFA)
- assay-explanation: Example B pre-emergence herbicidal activity, glasshouse pot test
- Type: in vivo
- protocol-conditions: 312 h, rate 250 g/ha, evaluated after 13 days, scale 0-100, read-out: Pre-emergence activity AVEFA (100=total damage to plant; 0=no damage to plant)
Answers are plain numbers, in %.

Would you please look over these solved cases?
# compound-structure-string, target, unit-annotation, recorded-number
data = [
    ("CCc1ccc(-c2ccc(Cl)nc2Cl)cc1C1=C(O)CCCC1=O", "Avena fatua (AVEFA)", "%", 0),
    ("CCc1ccc(-c2ccc(Cl)c(F)c2)cc1C1=C(O)C(C)(C)CC(C)(C)C1=O", "Avena fatua (AVEFA)", "%", 10),
    ("CCc1ccc(-c2ccc(Cl)c(F)c2F)cc1C1=C(O)C(C)(C)CCC1=O", "Avena fatua (AVEFA)", "%", 20),
    ("CCc1ccc(-c2ccc(Cl)nc2)cc1C1=C(O)C(C)(C)CCC1=O", "Avena fatua (AVEFA)", "%", 0),
    ("CCc1ccc(-c2ccc(Cl)c(F)c2Cl)cc1C1C(=O)C(C)(C)CC(C)(C)C1=O", "Avena fatua (AVEFA)", "%", 50),
    ("CCc1ccc(-c2ccc(Cl)c(Cl)c2)cc1C1=C(O)CCCC1=O", "Avena fatua (AVEFA)", "%", 60),
    ("CCc1ccc(-c2ccc(Cl)c(C(F)(F)F)c2)cc1C1=C(O)C(C)(C)CCC1=O", "Avena fatua (AVEFA)", "%", 20),
    ("CCc1ccc(-c2ccc(Cl)c(C(F)(F)F)c2)cc1C1=C(O)C(C)(C)CC(C)(C)C1=O", "Avena fatua (AVEFA)", "%", 20),
    ("CCc1ccc(-c2c(F)cc(Cl)cc2F)cc1C1=C(O)C(C)(C)CCC1=O", "Avena fatua (AVEFA)", "%", 0),
    ("CCc1ccc(-c2ccc(Cl)c(F)c2Cl)cc1C1=C(O)C(C)(C)CCC1=O", "Avena fatua (AVEFA)", "%", 0),
]

Provide each entry's pest or weed control at 250 g/ha from the list below.
1. CCc1ccc(-c2ccc(Cl)cc2F)cc1C1=C(O)CC(C)(C)CC1=O
2. CCc1ccc(-c2ccc(Cl)cc2C)cc1C1=C(O)CC(C)(C)CC1=O

*A*
30
30

Provide each entry's pest or weed control at 250 g/ha from the list below.
1. CCc1ccc(-c2ccc(Cl)cc2Cl)cc1C1=C(O)C(C)(C)CC(C)(C)C1=O
2. CCc1ccc(-c2ccc(Cl)c(OC)c2)cc1C1=C(O)CC(C)(C)CC1=O

*A*
1: 50; 2: 20

Provide each entry's pest or weed control at 250 g/ha from the list below.
1. CCc1ccc(-c2ccc(Cl)c(OC)c2)cc1C1=C(O)C(C)(C)CC(C)(C)C1=O
2. CCc1ccc(-c2c(F)cc(Cl)cc2Cl)cc1C1=C(O)CCCC1=O
3. CCc1ccc(-c2ccc(Cl)nc2)cc1C1=C(O)CCCC1=O
4. CCc1ccc(-c2c(F)cc(Cl)cc2F)cc1C1=C(O)CCCC1=O
5. CCc1ccc(-c2ccc(Cl)s2)cc1C1=C(O)CC(C)(C)CC1=O

*A*
1: 0; 2: 40; 3: 0; 4: 0; 5: 0

Provide each entry's pest or weed control at 250 g/ha from the list below.
1. CCc1ccc(-c2ccc(Cl)c(Cl)c2)cc1C1=C(O)C(C)(C)CCC1=O
2. CCc1ccc(-c2ccc(Cl)c(C(F)(F)F)c2)cc1C1=C(O)CCCC1=O

*A*
[0, 30]

###

- Tested on: Avena fatua (AVEFA)
- assay-explanation: Example B pre-emergence herbicidal activity, glasshouse pot test
- Type: in vivo
- protocol-conditions: 312 h, rate 250 g/ha, evaluated after 13 days, scale 0-100, read-out: Pre-emergence activity AVEFA (100=total damage to plant; 0=no damage to plant)
Provide the recorded pest or weed control at 250 g/ha for the entries that follow.
State the value with its unit after it.

# compound-structure-string, target, pest or weed control at 250 g/ha
rows = [
    ("CCc1ccc(-c2cc(Cl)c(Cl)cc2Cl)cc1C1=C(O)CCCC1=O", "Avena fatua (AVEFA)", "20%"),
]

Provide each entry's pest or weed control at 250 g/ha from the list below.
1. CCc1ccc(-c2ccc(Cl)c(OC)c2)cc1C1=C(O)CCCC1=O
2. CCc1ccc(-c2ccc(Cl)cc2F)cc1C1=C(O)CCCC1=O
3. CCc1ccc(-c2ccc(Cl)c(F)c2Cl)cc1C1=C(O)CC(C)(C)CC1=O

*A*
1: 40%; 2: 20%; 3: 0%

###

- Test system: Lolium perenne (LOLPE)
- assay-explanation: Example B post-emergence herbicidal activity, glasshouse pot test
- Type: in vivo
- protocol-conditions: 312 h, rate 250 g/ha, evaluated after 13 days, scale 0-100, read-out: Post-emergence activity LOLPE (100=total damage to plant; 0=no damage to plant)
Provide the recorded pest or weed control at 250 g/ha for the entries that follow.
Give bare numbers, in %.

# compound, unit-annotation, pest or weed control at 250 g/ha
rows = [
    ("CCc1ccc(-c2ccc(Cl)nc2)cc1C1=C(O)CC(C)(C)CC1=O [Compound T27]", "%", 80),
    ("CCc1ccc(-c2ccc(Cl)cc2Cl)cc1C1=C(O)CCCC1=O [Compound T44]", "%", 80),
    ("CCc1ccc(-c2ccc(Cl)c(F)c2F)cc1C1=C(O)C(C)(C)CC(C)(C)C1=O [Compound T62]", "%", 80),
]

Provide each entry's pest or weed control at 250 g/ha from the list below.
1. CCc1ccc(-c2ccc(Cl)s2)cc1C1=C(O)CC(C)(C)CC1=O [Compound T26]
2. CCc1ccc(-c2ccc(Cl)c(Cl)c2F)cc1C1=C(O)C(C)(C)CCC1=O [Compound T17]
3. CCc1ccc(-c2ccc(Cl)cc2)cc1C1=C(O)C(C)(C)CC(C)(C)C1=O [Compound T69]

*A*
70
40
100

###

- System: Lolium perenne (LOLPE)
- assay-explanation: Example B post-emergence herbicidal activity, glasshouse pot test
- Type: in vivo
- protocol-conditions: 312 h, rate 250 g/ha, evaluated after 13 days, scale 0-100, read-out: Post-emergence activity LOLPE (100=total damage to plant; 0=no damage to plant)
readout-type: pest or weed control at 250 g/ha (%)
Give bare numbers, in %.

# compound, pest or weed control at 250 g/ha / %
records = [
    ("CCc1ccc(-c2ccc(C(F)(F)F)cc2)cc1C1=C(O)CCCC1=O [Compound T59]", 100),
]

Provide each entry's pest or weed control at 250 g/ha from the list below.
1. CCc1ccc(-c2ccc(Cl)nc2)cc1C1=C(O)CCCC1=O [Compound T42]
2. CCc1ccc(-c2c(F)cc(Cl)cc2F)cc1C1=C(O)C(C)(C)CCC1=O [Compound T13]
3. CCc1ccc(-c2ccc(Cl)c(Cl)c2)cc1C1=C(O)CCCC1=O [Compound T49]
4. CCc1ccc(-c2c(F)cc(Cl)cc2F)cc1C1=C(O)CCCC1=O [Compound T58]
5. CCc1ccc(-c2ccc(Cl)cc2F)cc1C1=C(O)C(C)(C)CC(C)(C)C1=O [Compound T60]
6. CCc1ccc(-c2ccc(Cl)c(F)c2)cc1C1=C(O)CCCC1=O [Compound T56]

*A*
[50, 50, 90, 90, 80, 100]

Provide each entry's pest or weed control at 250 g/ha from the list below.
1. CCc1ccc(-c2ccc(Cl)cc2Cl)cc1C1=C(O)C(C)(C)CCC1=O [Compound T18]
2. CCc1ccc(-c2ccc(Cl)c(F)c2)cc1C1=C(O)C(C)(C)CC(C)(C)C1=O [Compound T64]
3. CCc1ccc(-c2ccc(C(F)(F)F)cc2)cc1C1=C(O)CC(C)(C)CC1=O [Compound T34]
4. CCc1ccc(-c2ccc(Cl)c(F)c2F)cc1C1=C(O)CC(C)(C)CC1=O [Compound T30]
5. CCc1ccc(-c2ccc(Cl)c(OC)c2)cc1C1=C(O)C(C)(C)CCC1=O [Compound T6]
6. CCc1ccc(-c2ccc(Cl)c(OC)c2)cc1C1=C(O)CC(C)(C)CC1=O [Compound T23]

*A*
1: 80; 2: 80; 3: 100; 4: 100; 5: 60; 6: 100
